// reported growth inhibition per item
Assay: NCI Yeast Anticancer Drug Screen. Data for the sgs1 mgt1 strain (AID 161);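 further: 0% = growth of cultures given vehicle only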
Conditions: S. cerevisiae sgs1 mgt1 strain, at 50.0 µM, hits give high values
The panel holds about 79,000 compounds, 15% with a hit somewhere; the sample as a whole holds those more often.
Numbers only; they are read as %.

input: Give the measured growth inhibition of Cc1ccc(C=C(C(=O)O)C(=O)O)o1 .
output: -17.6

input: Can you check CC(O)C(=O)N1CCCCC1 (configuration not stated) next?
output: -3.95

input: Can you check CCN(CC)CCCC(C)Nc1c2cc(OC)cc(C)c2nc2c(C)c(Cl)ccc12 (configuration not stated) next?
output: 13.8

---

Assay: NCI Yeast Anticancer Drug Screen. Data for the mlh1 rad18 strain (AID 175)
Conditions: S. cerevisiae mlh1 rad18 strain growth inhibition; at 50.0 µM; hits give high values
This is part of a sample that, as a whole, favours compounds with a hit. Of some 79,000 tested, about 15% had one in any assay.
// reported growth inhibition per item
Numbers only; they are read as %.

// known answers, use as guide
MOLECULE	READING
O=C(Cc1ccccc1)NN1C(=O)/C(=C\c2ccc([N+](=O)[O-])cc2)SC1=Nc1ccccc1	28.5
Cc1cc2[nH]c3c(C#N)c4c(c(=O)n3c2cc1C)CCCC4	-22.1
CCOC(=O)/C(C#N)=N\Nc1ccccc1	-12.9
CC1(C)[C@H](C(=O)O)N2C(=O)[C@@H](NC(=O)C(c3ccccc3)c3ccccc3)[C@H]2S1=O (some centres undefined)	4.85
CCCCN1C(=O)C(=O)N(CCc2ccc(OC)c(OC)c2)C1=O	18.1

input: Give the measured growth inhibition of Clc1cc(Cl)c2ncccc2c1 .
output: 11.8

---

// reported growth inhibition per item
Test: NCI Yeast Anticancer Drug Screen. Data for the mec2-1 strain (AID 157)
Conditions: S. cerevisiae mec2-1 strain, at 50.0 µM, hits give high values
About 79,000 compounds went through this panel and 15% of them were active in at least one assay; those are over-represented in the sample as a whole.
Numbers only; they are read as %.

// known answers, use as guide
MOLECULE	UNIT TAG	READING
CC(C)c1ccc(O)c(Cc2cc(C(C)C)cc(Cc3cc(C(C)C)ccc3O)c2O)c1	%	-3.2
C=CCNC(=O)N(CCCC(NC(C)=O)C(=O)NCc1ccccc1)Cc1ccccc1 (configuration not stated)	%	-2.85
Nc1nc(N)nc(-c2ccc([N+](=O)[O-])o2)n1	%	10.8

Now for the molecule whose growth inhibition we want.
input: Give the measured growth inhibition of O=C(NI1OC(=O)c2ccccc21)c1ccc(Cl)cc1 .
output: 6.05

---

// reported growth inhibition per item
Test: NCI Yeast Anticancer Drug Screen. Data for the mlh1 rad18 strain (AID 175)
Details: S. cerevisiae mlh1 rad18 strain growth inhibition; at 50.0 µM; hits give high values
About 79,000 compounds went through this panel and 15% of them were active in at least one assay; those are over-represented in the sample as a whole.
Numbers only; they are read as %.

// known answers, use as guide
COMPOUND	READING
Cc1cc(Br)ccc1C1=C(O)C(=O)NC1=O	-5.4
Cc1ccc(C(=O)c2c[nH]c(=O)[nH]c2=O)cc1	-21.9
CC(C)N(C(=O)C12C3C4C5C3C1(C#N)C5C42)C(C)C (stereo not drawn)	-9.45

Now for the compound whose growth inhibition we want.
input: Give the measured growth inhibition of O=[N+]([O-])c1ccc(Sc2c3ccccc3nc3cc(Cl)ccc23)cc1 .
output: -28.9

---

Assay: NCI Yeast Anticancer Drug Screen. Data for the mlh1 rad18 strain (AID 175)
Conditions: S. cerevisiae mlh1 rad18 strain growth inhibition; at 50.0 µM; hits give high values
About 79,000 compounds went through this panel and 15% of them were active in at least one assay; those are over-represented in the sample as a whole.
QUANTITY: growth inhibition (%)
Numbers only; they are read as %.

STRUCTURE SMILES STRING	UNIT TAG	growth inhibition
CCOC(=O)N1CCN(Cc2cc(=O)n3ccc(C)cc3n2)CC1	%	22.1

input: Give the measured growth inhibition of COc1ccc(/C=N/N2CCN(/N=C/c3ccc(OC)c(OC)c3)CC2)cc1OC .
output: 1.15

input: Can you check Cc1cc(=O)n2nc(SCc3ccccc3)sc2n1 next?
output: -8.95

input: Can you check Clc1ccc(OCCSCCOc2ccc(Cl)cc2)cc1 next?
output: 2.35

input: Can you check COc1ccc(/C=N/NC(=O)O)cc1 next?
output: -18.4

input: Can you check CC(=O)c1sc2c(c1OC(=O)c1cccs1)c(=O)n(-c1ccccc1)c(=S)n2-c1ccccc1 next?
output: 3.9

---

// reported growth inhibition per item
Test: NCI Yeast Anticancer Drug Screen. Data for the cln2 rad14 strain (AID 165);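 further: 0% = growth equal to vehicle treated cultures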
Details: S. cerevisiae cln2 rad14 strain, at 50.0 µM, hits give high values
About 79,000 compounds went through this panel and 15% of them were active in at least one assay; those are over-represented in the sample as a whole. Where a SMILES comes first, the peptide text is derived from it. The star is where a group is joined. Boc = CC(C)(C)OC(=O)*; Bn = c1ccc(C*)cc1
Numbers only; they are read as %.

// known answers, use as guide
COMPOUND	READING
COC(=O)C(CC(C)C)NC(=O)CNC(=O)C(Cc1ccc(OCc2ccccc2)cc1)NC(=O)C(COCc1ccccc1)NC(=O)OC(C)(C)C (centres undefined) (Boc-S(Bn)Y(Bn)GL-OMe; configuration not given here)	11.8
NC(N)=Nc1nc2ccccc2[nH]1	-26.4
O=C1C=Cn2cc(-c3ccccc3)c(-c3ccccc3)c21	19.9
CC1=C(O)C(=O)C2C(=O)C1C1Cc3ccccc3C21 (centres undefined)	-3.2
COC(=O)C(C)=C1CCCCC1	-38

input: Give the measured growth inhibition of O=C1/C(=C/c2ccccc2)CCCC/C1=C\c1ccccc1 .
output: -1.9

input: Can you check CSc1ncc2c(C#N)c3ccccn3c(=O)c2n1 next?
output: -1.5

input: Can you check Cc1ccc(C)c(NC(=O)CC/C(=N\NC(=O)c2c(O)ccc3ccccc23)C(C)C(=O)c2ccc(O)cc2)c1 (centres undefined) next?
output: 12.6

input: Can you check Cc1cc(Br)ccc1C1=C(O)C(=O)NC1=O next?
output: -32.3

input: Can you check N#CNC1=NC(N)C(c2nc3ccccc3[nH]2)=C(CCCC(=O)Nc2cccc([N+](=O)[O-])c2)N1 (centres undefined) next?
output: 25.9

input: Can you check C=CCSC(=S)Nc1nc2ccc(C)cc2s1 next?
output: 0.2

input: Can you check NC(=O)C(CC(C(N)=O)C(N)=O)C(N)=O next?
output: -24.9

input: Can you check CCCCCCCCCCCCCCCCOP(=O)(O)OP(=O)(O)OCC1OC(n2ccc(N)nc2=O)CC1O (centres undefined) next?
output: -17.8

input: Can you check COc1ccc(NC(=O)CC(=O)N2N=C(N(CCC#N)c3ccc(Cl)cc3)CC2c2ccccc2)cc1 (centres undefined) next?
output: 7.5

---

Assay: NCI Yeast Anticancer Drug Screen. Data for the bub3 strain (AID 167)
Details: S. cerevisiae bub3 mutant strain, at 50.0 µM, hits give high values
About 79,000 compounds went through this panel and 15% of them were active in at least one assay; those are over-represented in the sample as a whole. Where a SMILES comes first, the peptide text is derived from it. [ ]: non-standard residue; d: D form. The star is where a group is joined. ξ: configuration not given here. Cbz = O=C(OCc1ccccc1)*; ξK = NCCCCC(N)C(=O)O
// reported growth inhibition per item
Numbers only; they are read as %.

COMPOUND	growth inhibition [%]
CC(C)CC(C)(O)C#CC(C)(O)CC(C)C (stereo unspecified)	4.55

input: Give the measured growth inhibition of O=P1(c2ccccc2)c2ccccc2CCc2ccccc21 .
output: 2.25

input: Can you check NCCCCC(NC(=O)OCc1ccccc1)C(=O)NCC(N)=O (stereo unspecified) (Cbz-[ξK]-Gly-NH2) next?
output: 16.1

input: Can you check COc1cccc2c1C1(O)C2CCCC12OCCCO2 (stereo unspecified) next?
output: -29.4

input: Can you check NC(=Nc1ccc(S(=O)(=O)Nc2cnccn2)cc1)/N=C(/N)Nc1ccc(Br)cc1 next?
output: -5.65

input: Can you check CNc1ccccc1C next?
output: 18.9

---

// reported growth inhibition per item
Assay: NCI Yeast Anticancer Drug Screen. Data for the cln2 rad14 strain (AID 165);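 further: 0% = growth equal to vehicle treated cultures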
Conditions: S. cerevisiae cln2 rad14 strain, at 50.0 µM, hits give high values
Compounds without any hit were thinned out: in the full panel of roughly 79,000, 15% have a hit.
Numbers only; they are read as %.

// known answers, use as guide
MOLECULE	growth inhibition / %
CSC(SC)=C1CCCC(=C(SC)SC)C1=O	6.95
NS(=O)(=O)c1ccc(NC(=S)/N=C/c2c(O)c3ccccc3oc2=O)cc1	-18.9
COC1OC(CO)C(O)C(OCc2ccccc2)C1OCc1ccccc1 (centres undefined)	-10.3

input: Give the measured growth inhibition of CCC(=O)NCCc1ccccc1 .
output: -13.1
